Data origin: patent US8772509B2

Listing of recorded EC50 by entry.
Biological target: mAChR M1 (UniProt P08482)
Assay: mAChR M1 cell-based functional assay (calcium mobilization, Fluo-4, FDSS)
Conditions: positive allosteric modulation of EC20 acetylcholine response, CHO-K1 cells expressing mAChR M1; read-out: Potency (EC50)

| compound | value.kind | data.value |
| --- | --- | --- |
| Cc1cc(NC(=O)CS(=O)(=O)c2cn(Cc3ccc(F)nc3)c3ccccc23)no1 [compound 44] | EC50 | > 10 µM |
| Cc1cc(NC(=O)CS(=O)(=O)c2cn(Cc3ccc(F)cc3F)c3ccccc23)no1 [compound 49] | EC50 | > 10 µM |
| Cc1cc(NC(=O)C(C)S(=O)(=O)c2cn(Cc3cc(Br)ccc3F)c3ccccc23)no1 (stereo not drawn) [compound 63] | EC50 | > 10 µM |

Noted EC50 for Cc1cc(NC(=O)CS(=O)(=O)c2cn(Cc3cccc(-c4ccc(Cl)nc4)c3)c3ccccc23)no1 [compound 64] , tested on mAChR M1 (UniProt P08482): > 10 µM

Measured on mAChR M1 (UniProt P08482), Cc1cc(NC(=O)CS(=O)(=O)c2cn(Cc3cccc(Cl)c3F)c3ccccc23)no1 [compound 26] has a documented EC50 of 5.1 µM

The measured EC50 that Cc1cc(NC(=O)C(Cc2cccc(Cl)c2)S(=O)(=O)c2cn(Cc3cccc(Cl)c3)c3ccccc23)no1 (stereo not drawn) [compound 69] showed for mAChR M1 (UniProt P08482) is > 10 µM

EC50 value, target or system mAChR M1 (UniProt P08482), for Cc1cc(NC(=O)CS(=O)(=O)c2cn(Cc3cccc(-c4ccc(N5CCCC5)nc4)c3)c3ccccc23)no1 [compound 67] : > 10 µM

Result for Cc1cc(NC(=O)CS(=O)(=O)c2cn(Cc3cccc(-c4ccc(N5CCNCC5)nc4)c3)c3ccccc23)no1 [compound 70] , tested on mAChR M1 (UniProt P08482), EC50: > 10 µM

###

Property: pEC50; scope: individual compounds
Biological target: mAChR M1 (UniProt P08482)
Assay: mAChR M1 cell-based functional assay (calcium mobilization, Fluo-4, FDSS)
Details: positive allosteric modulation of EC20 acetylcholine response, CHO-K1 cells expressing mAChR M1; read-out: Potency (EC50)
Method: Chinese hamster ovary (CHO-K1) cells stably expressing rat (r)M1 were purchased from the American Type Culture Collection and cultured according to their indicated protocol. […] Calcium flux was measured using the Functional Drug Screening System (FDSS) 6000 (Hamamatsu Corporation, Tokyo, Japan) as an increase in the fluorescent static ratio. […] Agonist activity was analyzed as a concentration-dependent increase in calcium mobilization upon compound addition. […]
pEC50: −log10 of the molar value.

| compound | experimental.system | data.value |
| --- | --- | --- |
| Cc1cc(NC(=O)CS(=O)(=O)c2cn(Cc3ccc(F)c(Cl)c3)c3ccccc23)no1 [compound 52] | mAChR M1 (UniProt P08482) | < 5.00 |
| Cc1cc(NC(=O)CSc2cn(Cc3ccccc3Cl)c3ccccc23)no1 [compound 42] | mAChR M1 (UniProt P08482) | < 5.00 |
| O=C(CS(=O)(=O)c1cn(Cc2cccc(Br)c2)c2cc(F)cc(F)c12)Nc1cccnc1 [compound 35] | mAChR M1 (UniProt P08482) | < 5.00 |

The compound identified as Cc1cc(NC(=O)CS(=O)(=O)c2cn(Cc3ccccc3F)c3ccccc23)no1 [compound 43] registered its pEC50 at < 5.00

Summary for this compound, O=C(CS(=O)(=O)c1cn(Cc2cccc(Br)c2)c2cc(F)cc(F)c12)Nc1cncs1 [compound 38] : pEC50 is < 5.00

So, O=C(CS(=O)(=O)c1cn(Cc2cccc(-c3cccnc3)c2)c2cc(F)cc(F)c12)Nc1ccccn1 [compound 25] ? Its pEC50 was 5.34

The compound identified as Cc1cc(NC(=O)CSc2c[nH]c3ccccc23)no1 [compound 41] registered its pEC50 at < 5.00

Quick note, pEC50 for Cc1cc(NC(=O)C(Cc2ccc(F)cc2F)S(=O)(=O)c2cn(Cc3ccc(F)cc3F)c3ccccc23)no1 (stereo not drawn) [compound 71] landed at < 5.00

Looking up COc1ccccc1Cn1cc(S(=O)(=O)CC(=O)Nc2cc(C)on2)c2ccccc21 [compound 47] , I found its pEC50 recorded as < 5.00

pEC50 reading for Cc1cc(NC(=O)CS(=O)(=O)c2cn(Cc3cccc(-c4cnn(CC(C)C)c4)c3)c3ccccc23)no1 [compound 65] : < 5.00

###

Biological target: UniProtKB P08482
Test: mAChR M1 cell-based functional assay (calcium mobilization, Fluo-4, FDSS)
Conditions: maximal calcium flux response from curve fit or response at 30 μM compound, as % of the EC80 ACh response
Experimental: Chinese hamster ovary (CHO-K1) cells stably expressing rat (r)M1 were purchased from the American Type Culture Collection and cultured according to their indicated protocol. […] Calcium flux was measured using the Functional Drug Screening System (FDSS) 6000 (Hamamatsu Corporation, Tokyo, Japan) as an increase in the fluorescent static ratio. […] Agonist activity was analyzed as a concentration-dependent increase in calcium mobilization upon compound addition. […]
value.kind: Efficacy (% ACh maximum at 30 μM) (%)

| molecule | value.kind | data.value |
| --- | --- | --- |
| O=C(CS(=O)(=O)c1cn(Cc2cccc(Br)c2)c2cc(F)cc(F)c12)Nc1cncnc1 [compound 37] | Efficacy (% ACh maximum at 30 μM) | 48 |
| Cc1cc(NC(=O)CS(=O)(=O)c2cn(Cc3cccc(Cl)c3F)c3ccccc23)no1 [compound 26] | Efficacy (% ACh maximum at 30 μM) | 56 |
| COc1ncc(-c2cccc(Cn3cc(S(=O)(=O)CC(=O)Nc4ccccn4)c4c(F)cc(F)cc43)c2)cn1 [compound 18] | Efficacy (% ACh maximum at 30 μM) | 50 |
| O=C(CS(=O)(=O)c1cn(Cc2cccc(-c3ccc(F)nc3)c2)c2cc(F)cc(F)c12)Nc1ccccn1 [compound 27] | Efficacy (% ACh maximum at 30 μM) | 42 |
| COc1ncccc1-c1cccc(Cn2cc(S(=O)(=O)CC(=O)Nc3ccccn3)c3c(F)cc(F)cc32)c1 [compound 40] | Efficacy (% ACh maximum at 30 μM) | 37 |

1 = Cc1cc(NC(=O)CS(=O)(=O)c2cn(Cc3cccc(-c4cccnc4)c3)c3cc(F)cc(F)c23)no1 [compound 8]
2 = O=C(CS(=O)(=O)c1cn(Cc2cccc(-c3cccnc3F)c2)c2cc(F)cc(F)c12)Nc1ccccn1 [compound 24]
3 = Cc1cc(NC(=O)CS(=O)(=O)c2cn(Cc3cccc(-c4cn[nH]c4)c3)c3cc(F)cc(F)c23)no1 [compound 4]
Query: Arrange these 3 molecules in increasing order of Efficacy (% ACh maximum at 30 μM). In plain terms: list the labels in the order you were asked to.
Result: 2, 1, 3

###

Target: mAChR M1 (UniProt P08482)
Test: mAChR M1 cell-based functional assay (calcium mobilization, Fluo-4, FDSS)
Conditions: positive allosteric modulation of EC20 acetylcholine response, CHO-K1 cells expressing mAChR M1; read-out: Potency (EC50)
pEC50: −log10 of the molar value.
value.kind: pEC50

| smi | value.kind | data.value |
| --- | --- | --- |
| Cc1cc(NC(=O)CS(=O)(=O)c2cn(Cc3cccc(-c4cnn(C)c4)c3)c3ccccc23)no1 | pEC50 | 5.56 |
| O=C(CS(=O)(=O)c1cn(Cc2cccc(Br)c2)c2cc(F)cc(F)c12)Nc1noc2ccccc12 | pEC50 | 5.43 |

###

Biological target: mAChR M1 (UniProt P08482)
Experiment: mAChR M1 cell-based functional assay (calcium mobilization, Fluo-4, FDSS)
Conditions: positive allosteric modulation of EC20 acetylcholine response, CHO-K1 cells expressing mAChR M1; read-out: Potency (EC50)
pEC50: −log10 of the molar value.
value.kind: pEC50

| smi | pEC50 |
| --- | --- |
| Cc1cc(NC(=O)CS(=O)(=O)c2cn(Cc3cccc(-c4cc[nH]n4)c3F)c3ccccc23)no1 | 5.36 |
| Cc1cc(NC(=O)CS(=O)(=O)c2cn(Cc3cccc(-c4cn[nH]c4)c3)c3ccccc23)no1 | 5.66 |
| COc1cccc(Cn2cc(S(=O)(=O)CC(=O)Nc3cc(C)on3)c3ccccc32)c1 | 5.18 |
| O=C(CS(=O)(=O)c1cn(Cc2cccc(-c3ccc(F)nc3)c2)c2cc(F)cc(F)c12)Nc1ccccn1 | 5.28 |

P = O=C(CS(=O)(=O)c1cn(Cc2ccccc2)c2cc(F)cc(F)c12)Nc1ccccn1
Q = Cc1cc(NC(=O)CS(=O)(=O)c2cn(Cc3cccc(Br)c3)c3cc(F)cc(F)c23)no1
Query: Which value of pEC50 is greater, the one for P or the one for Q ? Use the label to indicate which entry you chose.
Result: P
(P: 6.00, Q: 5.27)
